System: EKVX NSCLC
Assay: NCI-60 one-dose screen, 48 h (100 = growth as untreated, 0 = no growth, -100 = all killed)
Conditions: 10 µM unless noted
The panel holds about 83,000 compounds, 20% with a hit somewhere; the sample as a whole holds those more often.
propertyLabel: growth (%)

INSERT INTO assay_data (molecule, propertylabel, outputunit, endpointvalue) VALUES
  ('C/C=C(/C)C(=O)O[C@@H]1CC(C)(C)CC2C34OC(=O)[C@@]21CC[C@@]3(C)[C@]1(C)CCC2C(C)(C)C(=O)CC[C@]2(C)C1C[C@@H]4O (some centres not stated)', 'growth', '%', 50.1),
  ('Oc1cccc(-c2nc(-c3n[nH]c(=S)n3-c3ccccc3)cc3c2[nH]c2ccccc23)c1', 'growth', '%', 50.3),
  ('N#C/C(=N\Nc1ccccc1)C(=O)Nc1cc(-c2ccccc2)nn1-c1ccccc1', 'growth', '%', 28.3),
  ('COc1cc(OCc2cccc(-c3ccc4c(c3)OCCO4)c2C)cc(OC)c1C=O', 'growth', '%', 53.7),
  ('Cc1ccc(C23CCC(=O)N2CCc2cncn23)cc1 (configuration not stated)', 'growth', '%', 104),
  ('CCOC(=O)/C(=C/c1ccc([N+](=O)[O-])cc1)C(=O)c1ccccc1', 'growth', '%', 103),
  ('C=C1C(=O)O[C@H]2[C@H]1CC/C(CNC(=O)/C=C/c1cc(OC)c(OC)c(OC)c1)=C\CC[C@@]1(C)O[C@@H]21', 'growth', '%', 25.3),
  ('COc1cc(OC)cc(C(=O)Nc2cnc(Nc3ccc(N4CCOCC4)nc3)nc2Oc2ccc(C(F)(F)F)cc2)c1', 'growth', '%', 90.2),
  ('C=C(C)[C@@H]1CC[C@]2(C(=O)NC(C)=O)CC[C@]3(C)[C@H](CC[C@@H]4[C@@]5(C)CCCNC(C)(C)[C@@H]5CC[C@]43C)[C@@H]12', 'growth', '%', 68.8),
  ('CO[C@H]1CC(c2ccc[nH]2)=N[C@]12O[C@@H](C)C[C@@H]1CCCCCCCc3ccc([nH]3)[C@H]12', 'growth', '%', 29.4),
  ('CCCN1C(=O)N(CCC)C2C1NC(=S)N2/N=C/C=C/c1ccccc1OC (configuration not stated)', 'growth', '%', 51.5),
  ('COc1cc2cc(Oc3ccc(NC(=O)Nc4ccc(Cl)c(Cl)c4)cc3)c(C)nc2cc1OCCN1CCCCC1', 'growth', '%', 99.8),
  ('C=CCn1c(SCC(=O)Nc2ccc(C(=O)/C=C/c3ccc(Cl)cc3)cc2)nnc1-c1ccc(Cl)c(Cl)c1', 'growth', '%', 79.7),
  ('COC(=O)c1nc(-c2ccccc2)oc1S(=O)(=O)N1CCN(c2ccc(OC)cc2)CC1', 'growth', '%', 88.2),
  ('C#CCOc1cc(/C=N/Nc2nc(-c3ccc(OC)cc3)cs2)ccc1O', 'growth', '%', 67.8),
  ('C/C(=C(\c1ccc(OCCCN(C)C)cc1)c1ccc(OC(=O)Cc2ccccc2)cc1)c1ccc(Cl)cc1', 'growth', '%', 70.4),
  ('CNC(=O)c1cc(Oc2ccc3nc(NC(=O)c4cc(C(F)(F)F)cc(C(F)(F)F)c4)sc3c2)ccn1', 'growth', '%', 23.3);
